# assayed_system: Adenosine receptor A1 (Bos taurus)
# assay_overview: Displacement of [3H]DPCPX from adenosine A1 receptor in bovine cerebral cortical membranes
# Assay type: cell membranes
pKi: −log10 of the molar value.
I would appreciate it if you labelled entries label 1 when pKi is 7 or higher, otherwise label 0.

Say whether O=C(OCC1CC1)c1cnc2c(cnn2CC(Cl)c2ccccc2)c1NCCc1ccccc1 (centres undefined) shows pKi of 7 or more.
label 1

Same question for CC(C)OC(=O)c1cnc2c(cnn2CC(Cl)c2ccccc2)c1NCCc1ccccc1Cl (centres undefined) please.
label 1

Entry CCOC(=O)c1cnc2c(cnn2CC(Cl)c2ccccc2)c1NCCc1cccc(F)c1 (centres undefined) please
label 1

// query: CCCNc1c(C(=O)OC)cnc2c1cnn2CC(Cl)c1ccccc1 (centres undefined)
label 0

Do the same for COC(=O)c1cnc2c(cnn2CC(Cl)c2ccccc2)c1NCCc1ccc(OC)cc1 (centres undefined) please
label 1

Lookup CCCCOC(=O)c1cnc2c(cnn2CC(Cl)c2ccccc2)c1N1CCCC1 (centres undefined)
label 0

Entry to check: CCCCOC(=O)c1cnc2c(cnn2CC(Cl)c2ccccc2)c1NC1CC1 (centres undefined)
label 0

Check CC(C)OC(=O)c1cnc2c(cnn2CC(Cl)c2ccccc2)c1N1CCOCC1 (centres undefined) too.
label 0

Also check CC(C)OC(=O)c1cnc2c(cnn2CC(Cl)c2ccccc2)c1NCc1ccccc1 (centres undefined)
label 0

Also, CCCOC(=O)c1cnc2c(cnn2CC(Cl)c2ccccc2)c1NCc1ccccc1 (centres undefined) please.
label 0

And the next one, CCCCOC(=O)c1cnc2c(cnn2CC(Cl)c2ccccc2)c1NCCC (centres undefined) ?
label 0

Now consider CCCNc1c(C(=O)OC(C)CC)cnc2c1cnn2CC(Cl)c1ccccc1 (centres undefined) and answer again.
label 1

Then what about the molecule CCCOC(=O)c1cnc2c(cnn2CC(Cl)c2ccccc2)c1N1CCOCC1 (centres undefined) ?
label 0

Could you do the same for CCCOC(=O)c1cnc2c(cnn2CC(Cl)c2ccccc2)c1N1CCCC1 (centres undefined) , please?
label 0

Another: CCOC(=O)c1cnc2c(cnn2CC(Cl)c2ccccc2)c1NCCc1ccc(OC)cc1 (centres undefined)
label 1

###

# assayed_system: Adenosine receptor A3 (Homo sapiens)
# assay_overview: Displacement of [125I]AB-MECA from human adenosine A3 receptor expressed in CHO cells at 10 uM
readout_kind: inhibition (%)
# value in %; strip the unit string

Using the record for COc1ccc(CCNc2c(C(=O)OC(C)C)cnc3c2cnn3CC(Cl)c2ccccc2)cc1 (stereo not given) , report its inhibition.
52

# iterate: CCOC(=O)c1cnc2c(cnn2CC(Cl)c2ccccc2)c1NCCc1ccc(C)cc1 (stereo not given)
38

Entry COC(=O)c1cnc2c(cnn2CC(Cl)c2ccccc2)c1NCCc1ccc(OC)cc1 (stereo not given) please
41

Now consider CCCOC(=O)c1cnc2c(cnn2CC(Cl)c2ccccc2)c1NC1CC1 (stereo not given) and answer again.
2

What about CC(C)OC(=O)c1cnc2c(cnn2CC(Cl)c2ccccc2)c1NCCc1ccccc1 (stereo not given) ?
0

###

# assayed_system: Adenosine receptor A1 (Bos taurus, UniProt P28190)
# assay_overview: Displacement of [3H]DPCPX from adenosine A1 receptor in bovine cerebral cortical membranes in presence of GTP
# Assay type: cell membranes
I'd be grateful if you could share measured Ki for these entries.
Report the figure in nM without appending any unit label.

What Ki value was documented for this compound, COC(=O)c1cnc2c(cnn2CC(Cl)c2ccccc2)c1NCCc1ccc(OC)cc1 (configuration not stated) ?
7.3

Ok, now COc1ccc(CCNc2c(C(=O)OC(C)C)cnc3c2cnn3CC(Cl)c2ccccc2)cc1 (configuration not stated)
7.7

###

Consider the following Ki values measured on Adenosine receptor A1 (Bos taurus) (UniProt P28190).
Field format: number, assumed µM, no unit text.

Looking for the measured Ki of COC(=O)c1cnc2c(cnn2CC(Cl)c2ccccc2)c1NC1CC1 (stereo not given) , can you help?
0.251

Again, but for CCCc1cc(O)c2ccc(C)nc2n1
0.0501

Thanks! And O=c1n(-c2ccccc2)nc2c(NC3CCCC3)nc3ccccc3n12 ?
0.000398

Ok, now Cc1ccc2c(Cl)cc(-c3ccccc3)nc2n1
1

Also need CCOc1cc(-c2ccccc2)nc2nc(Br)ccc12 , thanks.
0.0501

###

# Test system: Adenosine receptor A2a (Bos taurus)
# assay_overview: Displacement of [3HCGS21680 from adenosine A2A receptor in bovine striatal membranes at 10 uM
Label not satisfied if inhibition falls below 30%; label satisfied in every other case.

State whether the measured inhibition reaches 30%, counting equality as reaching it, for CCCCOC(=O)c1cnc2c(cnn2CC(Cl)c2ccccc2)c1NCCC (centres undefined)
not satisfied

Next molecule: COC(=O)c1cnc2c(cnn2CC(Cl)c2ccccc2)c1N1CCOCC1 (centres undefined)
not satisfied

Proceed to CC(C)OC(=O)c1cnc2c(cnn2CC(Cl)c2ccccc2)c1NCCc1ccccc1Cl (centres undefined)
not satisfied

Can you check O=C(OCC1CC1)c1cnc2c(cnn2CC(Cl)c2ccccc2)c1NCCc1ccccc1 (centres undefined) next?
satisfied

Same read-out for COC(=O)c1cnc2c(cnn2CC(Cl)c2ccccc2)c1N1CCCC1 (centres undefined) ?
not satisfied

Could you do the same for CCC(C)OC(=O)c1cnc2c(cnn2CC(Cl)c2ccccc2)c1NCCc1ccccc1 (centres undefined) , please?
satisfied

Same for COC(=O)c1cnc2c(cnn2CC(Cl)c2ccccc2)c1NCCc1ccc(C)cc1 (centres undefined)
not satisfied

Could you do the same for CC(C)OC(=O)c1cnc2c(cnn2CC(Cl)c2ccccc2)c1NCCc1ccc(Cl)cc1 (centres undefined) , please?
not satisfied

Same again, this time with CCCNc1c(C(=O)OC(C)C)cnc2c1cnn2CC(Cl)c1ccccc1 (centres undefined)
not satisfied

Now consider CCCNc1c(C(=O)OC(C)CC)cnc2c1cnn2CC(Cl)c1ccccc1 (centres undefined) .
satisfied

CCC(C)OC(=O)c1cnc2c(cnn2CC(Cl)c2ccccc2)c1NC1CC1 (centres undefined) ?
satisfied

Record: CCCCOC(=O)c1cnc2c(cnn2CC(Cl)c2ccccc2)c1NCc1ccccc1 (centres undefined)
not satisfied

Then CCOC(=O)c1cnc2c(cnn2CC(Cl)c2ccccc2)c1NCCc1ccc(Cl)cc1 (centres undefined) ?
satisfied

Subsequent entry: CC(C)OC(=O)c1cnc2c(cnn2CC(Cl)c2ccccc2)c1NCCc1cccc(Cl)c1 (centres undefined)
not satisfied

Entry Cc1ccc(CCNc2c(C(=O)OCC3CC3)cnc3c2cnn3CC(Cl)c2ccccc2)cc1 (centres undefined) please
not satisfied

Repeat with CCCCOC(=O)c1cnc2c(cnn2CC(Cl)c2ccccc2)c1N1CCOCC1 (centres undefined)
not satisfied

What do you get for CCCOC(=O)c1cnc2c(cnn2CC(Cl)c2ccccc2)c1N1CCOCC1 (centres undefined) ?
satisfied

Entry to check: CCCNc1c(C(=O)OCC2CC2)cnc2c1cnn2CC(Cl)c1ccccc1 (centres undefined)
not satisfied

Would you kindly repeat that for CCCCOC(=O)c1cnc2c(cnn2CC(Cl)c2ccccc2)c1NC1CC1 (centres undefined) ?
not satisfied

Another: CCCCOC(=O)c1cnc2c(cnn2CC(Cl)c2ccccc2)c1N1CCCC1 (centres undefined)
satisfied

Follow-up item: Cc1ccc(CCNc2c(C(=O)OC(C)C)cnc3c2cnn3CC(Cl)c2ccccc2)cc1 (centres undefined)
not satisfied

Moving on to the next molecule: CCOC(=O)c1cnc2c(cnn2CC(Cl)c2ccccc2)c1NCCc1cccc(F)c1 (centres undefined)
not satisfied

###

Provide the recorded Ki for the entries that follow.
# assayed_system: Adenosine receptor A1 (Bos taurus, UniProt P28190)
# Sequence (P28190 whole entry): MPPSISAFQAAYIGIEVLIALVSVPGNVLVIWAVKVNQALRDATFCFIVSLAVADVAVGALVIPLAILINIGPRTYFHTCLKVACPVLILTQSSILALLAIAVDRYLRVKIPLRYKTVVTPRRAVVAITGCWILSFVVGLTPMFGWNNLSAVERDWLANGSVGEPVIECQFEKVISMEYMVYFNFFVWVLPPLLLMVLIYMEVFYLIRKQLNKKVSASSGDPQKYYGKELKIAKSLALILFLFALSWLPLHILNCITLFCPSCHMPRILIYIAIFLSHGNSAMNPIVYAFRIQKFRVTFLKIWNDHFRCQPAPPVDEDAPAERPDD
# assay_overview: Displacement of [3H]DPCPX from adenosine A1 receptor in bovine cerebral cortical membranes
# Type: cell membranes
The reply should contain only the number, in nM.

Ki lookup needed for CC(C)OC(=O)c1cnc2c(cnn2CC(Cl)c2ccccc2)c1N1CCCC1 (stereo unspecified) , thanks.
1080

Please do the same for CCOC(=O)c1cnc2c(cnn2CC(Cl)c2ccccc2)c1NCCc1ccc(F)cc1 (stereo unspecified) as well.
12

Let us now turn to CC(C)OC(=O)c1cnc2c(cnn2CC(Cl)c2ccccc2)c1NC1CC1 (stereo unspecified)
36

Param item: CCOC(=O)c1cnc2c(cnn2CC(Cl)c2ccccc2)c1NCCc1ccc(C)cc1 (stereo unspecified)
22

Check Cc1ccc(CCNc2c(C(=O)OC(C)C)cnc3c2cnn3CC(Cl)c2ccccc2)cc1 (stereo unspecified) too.
48

Same again, this time with COC(=O)c1cnc2c(cnn2CC(Cl)c2ccccc2)c1N1CCCC1 (stereo unspecified)
4240

How about this compound: CC(C)OC(=O)c1cnc2c(cnn2CC(Cl)c2ccccc2)c1NCCc1ccc(Cl)cc1 (stereo unspecified)
41

Repeat for the following compound: CCOC(=O)c1cnc2c(cnn2CC(Cl)c2ccccc2)c1NCCc1ccc(Cl)cc1 (stereo unspecified)
19

Now consider COC(=O)c1cnc2c(cnn2CC(Cl)c2ccccc2)c1NCc1ccccc1 (stereo unspecified) and answer again.
141

And CC(C)OC(=O)c1cnc2c(cnn2CC(Cl)c2ccccc2)c1NCCc1ccccc1 (stereo unspecified) ?
31

What do we get for COC(=O)c1cnc2c(cnn2CC(Cl)c2ccccc2)c1NCCc1ccc(C)cc1 (stereo unspecified) ?
15

Note, next up: CCCNc1c(C(=O)OC(C)C)cnc2c1cnn2CC(Cl)c1ccccc1 (stereo unspecified)
24

Try COc1ccc(CCNc2c(C(=O)OC(C)C)cnc3c2cnn3CC(Cl)c2ccccc2)cc1 (stereo unspecified) next.
7

Input CCCOC(=O)c1cnc2c(cnn2CC(Cl)c2ccccc2)c1NCCc1ccccc1 (stereo unspecified)
130

Check CCC(C)OC(=O)c1cnc2c(cnn2CC(Cl)c2ccccc2)c1NCCc1ccccc1 (stereo unspecified) too.
62

Next compound up: CCOC(=O)c1cnc2c(cnn2CC(Cl)c2ccccc2)c1NCCc1ccccc1Cl (stereo unspecified)
76

Entry CCOC(=O)c1cnc2c(cnn2CC(Cl)c2ccccc2)c1NCCc1ccccc1F (stereo unspecified) please
16

Try this compound next: COC(=O)c1cnc2c(cnn2CC(Cl)c2ccccc2)c1NC1CC1 (stereo unspecified)
251

Also, CCOC(=O)c1cnc2c(cnn2CC(Cl)c2ccccc2)c1NCCc1cccc(Cl)c1 (stereo unspecified) please.
178

Would you mind doing COC(=O)c1cnc2c(cnn2CC(Cl)c2ccccc2)c1NCCc1ccccc1 (stereo unspecified) as well?
88

Moving on to the next compound: CCC(C)OC(=O)c1cnc2c(cnn2CC(Cl)c2ccccc2)c1NC1CC1 (stereo unspecified)
197
